molecular target: Beta-lactamase TEM (Escherichia coli, UniProt P62593); test: Inhibition of Escherichia coli TEM1
Sequence (P62593 whole entry): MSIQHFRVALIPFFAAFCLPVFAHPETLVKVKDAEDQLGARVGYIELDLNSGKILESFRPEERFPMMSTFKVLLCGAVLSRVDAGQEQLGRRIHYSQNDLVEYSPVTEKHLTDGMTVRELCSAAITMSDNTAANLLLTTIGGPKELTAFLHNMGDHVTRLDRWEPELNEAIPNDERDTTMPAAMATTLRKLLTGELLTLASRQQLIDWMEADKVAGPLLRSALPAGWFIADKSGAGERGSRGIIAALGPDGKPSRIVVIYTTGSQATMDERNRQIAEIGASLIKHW
Recorded measurements of pIC50, one per entry
The meaning of pIC50 here: minus log10 of the concentration in molar units.

Observe how each entry below is paired with its result.
# smiles-structure, system-under-test, recorded-measurement
measured = [
    ("O=C([O-])C1=CS[C@@H]2/C(=C/c3cn4c(n3)CNCC4)C(=O)N12.[Na+]", "Beta-lactamase TEM (Escherichia coli, UniProt P62593)", 8.30),
    ("O=C([O-])C1=CS[C@@H]2/C(=C/c3cn4c(n3)CSCC4)C(=O)N12.[Na+]", "Beta-lactamase TEM (Escherichia coli, UniProt P62593)", 6.14),
    ("O=C([O-])C1=CS[C@@H]2/C(=C\\c3cc4n(n3)CCOC4)C(=O)N12.[Na+]", "Beta-lactamase TEM (Escherichia coli, UniProt P62593)", 8.40),
    ("O=C([O-])C1=CS[C@@H]2/C(=C/c3cn4c(n3)COCC4)C(=O)N12.[Na+]", "Beta-lactamase TEM (Escherichia coli, UniProt P62593)", 9.40),
    ("O=C([O-])C1=CS[C@@H]2/C(=C\\c3cc4n(n3)CCS(=O)(=O)C4)C(=O)N12.[Na+]", "Beta-lactamase TEM (Escherichia coli, UniProt P62593)", 9.00),
]

Dear colleague, I am looking for the recorded pIC50 of the following molecule: `CN1CCn2cc(/C=C3/C(=O)N4C(C(=O)[O-])=CS[C@H]34)nc2C1.[Na+]`
8.40

Dear colleague, I am looking for the recorded pIC50 of the following molecule: `COc1ccc(CN2CCc3sc(/C=C4/C(=O)N5C(C(=O)[O-])=CS[C@H]45)cc3C2)cc1.[Na+]`
8.70

Dear colleague, I am looking for the recorded pIC50 of the following molecule: `O=C([O-])C1=CS[C@@H]2/C(=C\c3cc4c(s3)CCN(Cc3cccnc3)C4)C(=O)N12.[Na+]`
8.00

Dear colleague, I am looking for the recorded pIC50 of the following molecule: `O=C([O-])C1=CS[C@@H]2/C(=C\c3cc4n(n3)CCCC4)C(=O)N12.[Na+]`
8.70

Dear colleague, I am looking for the recorded pIC50 of the following molecule: `O=C([O-])C1=CS[C@@H]2/C(=C\c3cc4n(n3)CCNC4)C(=O)N12.[Na+]`
9.00

Dear colleague, I am looking for the recorded pIC50 of the following molecule: `O=C([O-])C1=CS[C@@H]2/C(=C\c3cc4n(n3)CCCO4)C(=O)N12.[Na+]`
8.22

Dear colleague, I am looking for the recorded pIC50 of the following molecule: `O=C([O-])C1=CS[C@@H]2/C(=C\c3cn4c(n3)CSCC4)C(=O)N12.[Na+]`
8.52
